- Read-out: 3-Hydroxy-3-Methylglutaryl-CoA Synthase 2 (HMGCS2), HMGCS2 (gene 3158)
- ASSAY_TEXT: LTEA_HepaRG_HMGCS2: Life Technologies and Expression Analysis (LTEA) Assay for 3-Hydroxy-3-Methylglutaryl-CoA Synthase 2 (HMGCS2) using HepaRG (AID 2283504)
- TEST_SETTINGS: mRNA level, 48 h; actives raise or lower the signal
Calls of active or inactive are those of the source. How the source made its calls: active means hit-call score of the fitted dose curve at least 0.9, where 1 is the maximum; inactive means score below 0.9.

# COMPOUND, AC50
rows = [
    ("CC(C)=CCC/C(C)=C/CO", "inactive"),
    ("O=C(O)c1cccc(Oc2ccccc2)c1", "inactive"),
    ("CC(=O)OCCC(C)C", "inactive"),
    ("CCCCCCCCO", "inactive"),
    ("COC(=O)CC(=O)OC", "inactive"),
    ("CCOCCO", "inactive"),
    ("O=C(CCCCCCCCc1cccnc1)N1CCC(C=C(c2ccccc2)c2ccccc2)CC1", "22.9 µM (active)"),
    ("CC[C@H]1OC(=O)[C@H](C)[C@@H](O[C@H]2C[C@@](C)(OC)[C@@H](O)[C@H](C)O2)[C@H](C)[C@@H](O[C@@H]2O[C@H](C)C[C@H](N(C)C)[C@H]2O)[C@](C)(O)C[C@@H](C)C(=O)[C@H](C)[C@@H](O)[C@]1(C)O", "inactive"),
    ("CC(C)CCCCCCCOC(=O)CCCCC(=O)OCCCCCCCC(C)C", "inactive"),
    ("CCc1cc(SCc2sc(-c3ccc(C(F)(F)F)cc3)nc2CN2CCN(c3ccc(OC)cc3)CC2)ccc1OCC(=O)O", "77.1 µM (active)"),
    ("CCOC(=O)COc1ccc2c(c1)CC(NCC(O)c1cccc(Cl)c1)CC2 (stereo not given)", "inactive"),
    ("O=C(O)c1cc(N=Nc2ccc(S(=O)(=O)Nc3ccccn3)cc2)ccc1O", "inactive"),
    ("O=C(O)c1cccc(N(Cc2cccnc2)c2ccc(OC(F)F)c(OC(F)F)c2)c1", "inactive"),
    ("CC1=CC(=O)CC(C)(C)C1", "inactive"),
    ("Fc1ccccc1[C@@H](F)COC1CCC(Nc2ncnc3[nH]ncc23)CC1 (stereo not given in full)", "45.2 µM (active)"),
]

----------
- ASSAY_TEXT: APR_HepG2_MitoMass_72hr: Apredica 72-hour HepG2 Assay for Mitochondrial Mass (AID 2282924);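 further: MitoTracker Red CMXRos stain intensity per cell imaged as mitochondrial mass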
- TEST_SETTINGS: high-content imaging, actives raise or lower the signal
Active and inactive are the calls of the source. How the source made its calls: active means hit-call score of the fitted dose curve at least 0.9, where 1 is the maximum; inactive means score below 0.9.
Possible outcomes: active, inactive

# COMPOUND, GROUP
rows = [
    ("Oc1ccc2c(c1)-c1ccccc1C2", "inactive"),
    ("CCCCC(CC)COC(=O)c1ccc(C(=O)OCC(CC)CCCC)cc1 (stereo unspecified)", "inactive"),
    ("CCn1nc(Cc2ccccc2)cc1C1CCN(C[C@H]2C[C@H](N(C)[C@@H](C(=O)O)C(C)C)C[C@@H]2c2cccc(F)c2)CC1", "inactive"),
    ("CC(C)(O)c1coc(S(=O)(=O)NC(=O)Nc2c3c(cc4c2CCC4)CCC3)c1", "inactive"),
    ("CC(C)CCCCCCCOC(=O)CCCCC(=O)OCCCCCCCC(C)C", "inactive"),
    ("Cc1[nH]cnc1C[C@H]1CCc2c(C)c3ccccc3n2C1=O", "active"),
]

----------
- Read-out: Insulin Like Growth Factor 1 (IGF1), IGF1 (gene 3479)
- ASSAY_TEXT: LTEA_HepaRG_IGF1: Life Technologies and Expression Analysis (LTEA) Assay for Insulin Like Growth Factor 1 (IGF1) using HepaRG (AID 2283506)
- TEST_SETTINGS: mRNA level, 48 h; actives raise or lower the signal
Active and inactive are the calls of the source. How the source made its calls: active means hit-call score of the fitted dose curve at least 0.9, where 1 is the maximum; inactive means score below 0.9.

# SAMPLE_SMILES, outcome
measured = [
    ("CC[C@H](C)C(=O)O[C@H]1C[C@@H](C)C=C2C=C[C@H](C)[C@H](CC[C@@H]3C[C@@H](O)CC(=O)O3)[C@H]21", "inactive"),
    ("Cc1ccc(N)cc1O", "inactive"),
    ("O=C(O)c1cccc(Oc2ccccc2)c1", "inactive"),
]

----------
- Read-out: CYP2E1 (gene 1571)
- ASSAY_TEXT: LTEA_HepaRG_CYP2E1: Life Technologies and Expression Analysis (LTEA) Assay for CYP2E1 using HepaRG (AID 2283485)
- TEST_SETTINGS: mRNA level, 48 h; actives raise or lower the signal
Active and inactive are the calls of the source. How the source made its calls: active means hit-call score of the fitted dose curve at least 0.9, where 1 is the maximum; inactive means score below 0.9.
Classes used: 1.0 (active), 0.0 (inactive)

# MOLECULE, GROUP
measured = [
    ("CCOC(=O)c1ccc(C2CCC(NC[C@H](O)COc3ccc(O)c(NS(C)(=O)=O)c3)CC2)cc1 (some centres undefined)", 0.0),
    ("CCCN(C1CCN(C(=O)C2CCNCC2)CC1)[C@@H]1CCc2ccc(OC)cc2C1", 1.0),
    ("CC[C@H]1OC(=O)[C@H](C)[C@@H](O[C@H]2C[C@@](C)(OC)[C@@H](O)[C@H](C)O2)[C@H](C)[C@@H](O[C@@H]2O[C@H](C)C[C@H](N(C)C)[C@H]2O)[C@](C)(O)C[C@@H](C)C(=O)[C@H](C)[C@@H](O)[C@]1(C)O", 1.0),
    ("CC(=O)c1ccc2c(c1)[C@H](NC(=O)c1ccc(F)cc1)[C@@H](O)C(C)(C)O2", 0.0),
    ("Fc1ccccc1[C@@H](F)COC1CCC(Nc2ncnc3[nH]ncc23)CC1 (some centres undefined)", 1.0),
    ("CNCc1ccc(NC(=O)c2c[nH]c3c2C(=O)CCC3)cc1", 0.0),
    ("CC(=O)OCCC(C)C", 0.0),
    ("O=C(O)CC(O)C(=O)O (centres undefined)", 0.0),
    ("Cn1c(=O)cc(Oc2ccc(F)cc2F)c2cnc(NCC(C)(C)O)nc21", 1.0),
    ("CCOC(=O)COc1ccc2c(c1)CC(NCC(O)c1cccc(Cl)c1)CC2 (centres undefined)", 0.0),
    ("CC(C)=CCCC(C)CCO (centres undefined)", 0.0),
    ("COc1ccc2sc(C(=O)Nc3nnn[nH]3)c(OC(C)C)c2c1", 1.0),
    ("CCCCCCCCCCCCc1ccccc1", 0.0),
    ("O=C1CCCCCN1", 0.0),
    ("Cn1c(=O)c2c(ncn2C)n(C)c1=O", 0.0),
    ("Cc1[nH]cnc1C[C@H]1CCc2c(C)c3ccccc3n2C1=O", 1.0),
    ("CC[C@H](C)C(=O)O[C@H]1C[C@@H](C)C=C2C=C[C@H](C)[C@H](CC[C@@H]3C[C@@H](O)CC(=O)O3)[C@H]21", 1.0),
    ("CCOCCOCCOCCO", 0.0),
    ("C=CC(=C)CCC=C(C)C", 0.0),
    ("CCCCCCCCCCCCCCCO", 0.0),
    ("CC(C)c1cccc(C(C)C)c1N1C(=O)c2ccc(O)cc2C1=O", 1.0),
    ("O=P(OC(CCl)CCl)(OC(CCl)CCl)OC(CCl)CCl", 1.0),
    ("CC1=CC(=O)CC(C)(C)C1", 0.0),
    ("C1N2CN3CN1CN(C2)C3", 0.0),
]

----------
- ASSAYED_TARGET: Transcription factor Sp1 (Homo sapiens) (UniProt P08047)
- Sequence (P08047 whole entry, looked up): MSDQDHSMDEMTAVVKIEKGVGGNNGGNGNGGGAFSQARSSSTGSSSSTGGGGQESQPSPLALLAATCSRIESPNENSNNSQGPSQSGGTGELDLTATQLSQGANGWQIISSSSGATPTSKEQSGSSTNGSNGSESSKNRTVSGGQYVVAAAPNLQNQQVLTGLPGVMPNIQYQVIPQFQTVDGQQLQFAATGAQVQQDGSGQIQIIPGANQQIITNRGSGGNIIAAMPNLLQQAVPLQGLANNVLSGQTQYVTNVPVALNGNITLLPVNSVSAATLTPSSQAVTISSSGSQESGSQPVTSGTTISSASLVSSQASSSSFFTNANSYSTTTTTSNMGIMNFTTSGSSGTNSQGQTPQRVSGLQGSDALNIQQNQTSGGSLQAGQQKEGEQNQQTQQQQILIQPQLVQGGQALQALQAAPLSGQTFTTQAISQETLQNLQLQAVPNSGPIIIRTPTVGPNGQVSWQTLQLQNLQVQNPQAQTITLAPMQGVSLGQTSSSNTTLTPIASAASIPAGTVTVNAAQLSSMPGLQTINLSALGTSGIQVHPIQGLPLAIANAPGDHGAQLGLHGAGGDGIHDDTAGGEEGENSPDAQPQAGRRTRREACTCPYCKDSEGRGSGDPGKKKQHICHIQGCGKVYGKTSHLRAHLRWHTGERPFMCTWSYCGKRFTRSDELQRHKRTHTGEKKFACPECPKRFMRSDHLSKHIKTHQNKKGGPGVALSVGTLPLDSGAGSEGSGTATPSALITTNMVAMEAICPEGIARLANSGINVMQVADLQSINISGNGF
- ASSAY_TEXT: ATG_Sp1_CIS: Attagene CIS-FACTORIAL HepG2 Assay for human Specificity Protein 1 (Sp1) (AID 2282961)
- TEST_SETTINGS: HepG2 Sp1 cis-reporter transcription, actives raise or lower the signal
Activity calls are given as the source filed them. How the source made its calls: active means hit-call score of the fitted dose curve at least 0.9, where 1 is the maximum; inactive means score below 0.9.
Labels: t (active), f (inactive)

# MOLECULE, GROUP
measured = [
    ("CC(C)=CCC/C(C)=C\\CO", "f"),
    ("CCOC(=O)CC(CC(=O)OCC)(OC(C)=O)C(=O)OCC", "f"),
    ("CC(C)=CCCC(C)CCO (centres undefined)", "f"),
    ("CC(C)=CCC/C(C)=C/CO", "f"),
    ("O=C1OC(=O)C2C3C=CC(C3)C12 (centres undefined)", "f"),
    ("C=CCCCCCCCCC(=O)O", "f"),
    ("CCc1cc(SCc2sc(-c3ccc(C(F)(F)F)cc3)nc2CN2CCN(c3ccc(OC)cc3)CC2)ccc1OCC(=O)O", "f"),
    ("CC(C)CCCCCCCOC(=O)CCCCC(=O)OCCCCCCCC(C)C", "f"),
    ("CC(=O)OC[C@H]1O[C@@](COC(C)=O)(O[C@H]2O[C@H](COC(C)=O)[C@@H](OC(C)=O)[C@H](OC(C)=O)[C@H]2OC(C)=O)[C@@H](OC(C)=O)[C@@H]1OC(C)=O", "f"),
    ("Fc1ccccc1[C@@H](F)COC1CCC(Nc2ncnc3[nH]ncc23)CC1 (some centres undefined)", "t"),
    ("COC(=O)c1ccccc1O", "f"),
    ("O=C(O)CCN(C1(C(=O)NO)CCCC1)S(=O)(=O)c1ccc(Oc2ccc(F)cc2)cc1", "f"),
    ("O=C(NS(=O)(=O)/C=C/c1ccccc1)c1ccc(F)cc1Cl", "f"),
    ("Cc1ccc(O)cc1", "f"),
    ("NC(=O)NO", "f"),
    ("COc1ccc(-n2nc(C(F)F)cc2-c2ccc(S(C)=O)cc2)cc1 (centres undefined)", "f"),
    ("O=P(OC(CCl)CCl)(OC(CCl)CCl)OC(CCl)CCl", "f"),
    ("CC1=CC(=O)CC(C)(C)C1", "f"),
    ("CNS(=O)(=O)c1cc(C(=O)N2CCC(CCN3C4CCC3CC(n3c(C)nc5ccccc53)C4)(c3cccc(F)c3)CC2)c(Cl)cc1F (centres undefined)", "f"),
    ("Cn1c(=O)c2c(ncn2C)n(C)c1=O", "f"),
    ("Nc1ccc(Nc2ccccc2)cc1", "f"),
    ("CCOCCOCCOCCO", "f"),
    ("CC(C)CC(C)(O)C#CC(C)(O)CC(C)C (centres undefined)", "f"),
    ("CCCC(=O)OCC", "f"),
    ("CCCCC(CC)COC(=O)c1ccc(C(=O)OCC(CC)CCCC)cc1 (centres undefined)", "f"),
    ("O=C1CCCCCN1", "f"),
    ("O=C(O)c1cccc(N(Cc2cccnc2)c2ccc(OC(F)F)c(OC(F)F)c2)c1", "f"),
    ("CC1(C)C(=O)N(Br)C(=O)N1Br", "f"),
    ("CCCCCCCCO", "f"),
]
